Data origin, for the record: ChEMBL document CHEMBL1155808

- Assay method text: Cytotoxicity against human Non-small cell lung carcinoma cells
- Type: functional
Structures can show the parent of a compound that is named as a salt.
Assign classes using reported GI50 values and the ranges Low = under 2 µM, Medium = from 2 µM up to 30 µM, High = 30 µM and over, please.

INSERT INTO assay_data (molecule, assigned_label) VALUES
  ('Cc1cc2c(cc1O)/C(=C\c1cccc(/C=C3/C(=O)Nc4cc(C)c(O)cc43)n1)C(=O)N2', 'High'),
  ('O=C1Nc2ccc(F)cc2/C1=C\c1cccc(/C=C2/C(=O)Nc3ccc(F)cc32)n1', 'Medium'),
  ('COc1ccc2c(c1)/C(=C\c1cccc(/C=C3/C(=O)Nc4ccc(OC)cc43)n1)C(=O)N2', 'Low'),
  ('O=C1Nc2ccc(Cl)cc2/C1=C\c1cccc(/C=C2/C(=O)Nc3ccc(Cl)cc32)n1', 'Low'),
  ('O=C1Nc2cccc(Cl)c2/C1=C\c1cccc(/C=C2/C(=O)Nc3cccc(Cl)c32)n1', 'Low'),
  ('O=C1Nc2ccc(O)cc2/C1=C\c1cccc(/C=C2/C(=O)Nc3ccc(O)cc32)n1', 'High'),
  ('COc1ccc2c(c1)/C(=C\c1cccc(/C=C3/C(=O)N(C)c4ccc(OC)cc43)n1)C(=O)N2C', 'Medium'),
  ('CC[C@]1(O)C[C@H]2CN(CCc3c([nH]c4ccccc34)[C@@](C(=O)OC)(c3cc4c(cc3OC)N(C=O)[C@H]3[C@@](O)(C(=O)OC)[C@H](OC(C)=O)[C@]5(CC)C=CCN6CC[C@]43[C@@H]65)C2)C1 [VINCRISTINE SULFATE]', 'Low'),
  ('CC(=O)n1c(=O)/c(=C/c2c[nH]c3ccccc23)n(C(C)=O)c(=O)/c1=C/c1c[nH]c2ccccc12', 'High'),
  ('O=C1Nc2ccccc2/C1=C\c1cccc(/C=C2/C(=O)Nc3ccccc32)n1', 'Low'),
  ('COc1cc2c(cc1C)NC(=O)/C2=C/c1cccc(/C=C2/C(=O)Nc3cc(C)c(OC)cc32)n1', 'High'),
  ('CN(C)c1ccc2c(c1)/C(=C\c1cccc(/C=C3/C(=O)Nc4ccc(N(C)C)cc43)n1)C(=O)N2', 'Medium'),
  ('O=C1Nc2ccc(Br)cc2/C1=C\c1cccc(/C=C2/C(=O)Nc3ccc(Br)cc32)n1', 'Medium'),
  ('CN1C(=O)/C(=C/c2cccc(/C=C3/C(=O)N(C)c4ccccc43)n2)c2ccccc21', 'Medium'),
  ('O=c1[nH]/c(=C\c2c[nH]c3ccccc23)c(=O)[nH]/c1=C\c1c[nH]c2ccccc12', 'High'),
  ('O=C1Nc2cc(Cl)ccc2/C1=C\c1cccc(/C=C2/C(=O)Nc3cc(Cl)ccc32)n1', 'Medium'),
  ('O=C1Nc2ccccc2/C1=c1/[nH]c(=O)/c(=C2/C(=O)Nc3ccccc32)[nH]c1=O', 'High');
